Tested on: P388 leukemia ip, CD2F1 mice, survival T/C
Assay: NCI In Vivo Anticancer Drug Screen. Data for tumor model P388 Leukemia (intraperitoneal) in CD2F1 (CDF1) mice
Details: endpoint: median survival time; dose: 6.25 mg/kg/injection; schedule: Q01DX009 (ip); vehicle: saline with Tween-80
Toxic doses and inconclusive results are not listed. The calls were made as follows: active = survival T/C of 150% or more; inactive = T/C below 125% in these data.
Pick one: yes (active), no (inactive)

Input line: # outcome recorded in this test, key = OC(c1cc2cc(Cl)c(Cl)cc2c2cc(C(F)(F)F)ccc12)C1CCCCN1 (centres undefined)
Output line: no

Input line: Give the logged outcome of this assay for the following compound: ClCCN(Cc1ccccc1)Cc1ccccc1
Output line: no

Input line: How was CCCCCCCCCCCCCCCCSc1ccncc1NN=O classified in this test?
Output line: no

Input line: What outcome does the record of this test show for C(=C\CN1CCOCC1)/Cc1cccnc1 ?
Output line: no

Input line: Recorded test call requested for CC(=O)OCC1OC([Se][As](C)C)C(OC(C)=O)C(OC(C)=O)C1OC(C)=O (centres undefined)
Output line: no

Input line: Dear colleague, could you share the recorded outcome for CSC(=S)N/N=C/c1ccccc1O when you have a moment?
Output line: no

Input line: For NNc1n[nH]c(=S)n1N , what call appears in the results of this test?
Output line: no

Input line: Each compound tested received a call. Report the one for CCN=C(N)Nc1ccc(NC(=O)c2ccc(C(=O)Nc3ccc(NC(N)=NCC)cc3)cc2)cc1 .
Output line: yes

Input line: What outcome does the record of this test show for NC(CSCc1ccc(N(CCCl)CCCl)cc1)C(=O)O (centres undefined) ?
Output line: yes

Input line: Hi, sorry to bother you, what did the test record for COc1ccc(/C=N\NC(=O)CNC(=O)Nc2cccc(C(F)(F)F)c2)cc1OC ?
Output line: no

Input line: For this compound, state the assay outcome: CN(c1ccccc1)P(C)(Cl)(c1ccccc1)c1ccccc1
Output line: no

Input line: Call for entry COc1cccc2c1[n+]([O-])c1cccc(O)c1[n+]2[O-] :
Output line: no

Input line: Just curious, what result did CC(=O)[O][Hg][CH]1C2CC3C(C2OC(C)=O)C31 (centres undefined) get here?
Output line: no

Input line: Any idea what this test logged for CN1CCc2c3n(c4ccccc24)C(=O)CCC31 (centres undefined) ?
Output line: no

The origin of these recorded values is PubChem BioAssay AID330.
